Test method notes: small-molecule microarray binders of probe aXIP, primary screen, biochemical, NeuroSMM set, 635/667 nm fluorescence (AID 1119);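 also: probe is the protein aXip251-270 applied at 1 µg/mL to compound-printed slides; binding of probe to printed compounds measured as 667 nm fluorescence plus signal to noise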
Run parameters: higher = more signal, called active from +8 up or from −8 down
Catalogue of molecules with associated composite Z-score
Write no unit; give the number alone.

>>> observed_result("CC(=O)c1ccc(C(O)C2C=CC3C(=O)N(C)C(=O)C3N2NC(=O)OC(C)(C)C)cc1 (stereo not drawn)")
-0.331

According to the records, this molecule O=C1C2C=CC(C(O)c3ccc([N+](=O)[O-])cc3)N(Nc3ccccc3)C2C(=O)N1c1ccccc1 (stereo not drawn) displays composite Z-score of -0.0589

Lookup result for CC[C@H](C)C(=O)O[C@H]1CC[C@]2(C)C3=C(CCC2C1(C)C)[C@]1(C)CC[C@H]([C@H](C)CCCC(C)C)[C@@]1(C)CC3 (stereo partly drawn) ; measured composite Z-score: -0.014

Data provenance is PubChem BioAssay.
